In this section we review reported pKd values for a set of binders.
# tgt: T1, PUF4 RNA-binding domain (Saccharomyces cerevisiae, UniProt P25339 537-888)
# T1 sequence: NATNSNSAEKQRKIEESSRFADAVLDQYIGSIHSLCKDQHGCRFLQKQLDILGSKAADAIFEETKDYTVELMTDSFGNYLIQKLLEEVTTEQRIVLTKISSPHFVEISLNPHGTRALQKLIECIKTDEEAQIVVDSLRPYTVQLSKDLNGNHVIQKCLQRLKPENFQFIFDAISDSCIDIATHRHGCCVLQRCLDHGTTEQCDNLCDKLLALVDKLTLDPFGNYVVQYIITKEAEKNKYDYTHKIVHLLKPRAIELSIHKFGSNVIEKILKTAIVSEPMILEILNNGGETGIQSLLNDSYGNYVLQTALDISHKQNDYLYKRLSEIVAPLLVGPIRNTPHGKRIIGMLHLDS
# assay remarks: Mg; RNA-MaP; 20 mM Na-HEPES pH 7.4, 30 mM KOAc, 0.75 mM MgCl2, 0.1% Tween-20, 5% glycerol, 0.1 mg/mL BSA, 2 mM DTT; 25 C; 0.0125-409.6 nM protein
# assay setup: tags: N-His6-TEV cleaved; C-SNAP kept, Cy3B-labelled; label: tethered on chip by stalled RNA polymerase
Scale: negative log10 of molar concentration, which is what pKd denotes.

| binder | pKd |
| --- | --- |
| UCUCUUUGUAUGAUCUCUCUU (ssRNA) [Ic_S1_P4E.1_K4.1_C4.1_H4.1_A4.1_[A6G]_[T7A]_F4.1_[A9C]_T4.1] | 6.83 |
| Id_ii_S2_P5E.2_K5.1_C5.2_[C-2T]_[T-1G]_H5.1_A5.1_F5.1_T5.2_[T11A] (ssRNA) RNA: UUUGAUUAAUAUGAUAUCGUUCUUUCUUGUGUAUUAUUAAAUUCUUUCUCGAUAUCAUAUUAAUCUUU | 8.76 |

Task: Please report the recorded pKd for Ic_S2_P4E.1_K4.1_C4.1_H4.1_A4.1_[A6C]_F4.1_[T8G]_[A9T]_T4.1 (ssRNA) RNA: UUUGAUUAAUAUGAUAUCGUUCUUUCUUGUAUCUGUUUCUUUCUCGAUAUCAUAUUAAUCUUU .
Result: 7.75
